Data provenance is PubChem BioAssay AID248.

- Tested on: L1210 leukemia ip in BDF1 mice, survival T/C
- test details: NCI In Vivo Anticancer Drug Screen. Data for tumor model L1210 Leukemia (intraperitoneal) in B6D2F1 (BDF1) mice
- test settings: endpoint: mean survival time; dose: 100.0 mg/kg/injection; schedule: Q04DX003 (ip); vehicle: Klucel (hydroxypropylcellulose) (HPC); higher = longer survival
Toxic doses and inconclusive results are not listed.
Would you kindly list T/C for each of these compounds?

Below are worked cases with known answers.
CCCCCCCCCCCCCCCCCC(=O)CS(C)=O (stereo not drawn) ... 94 % of control
O=C(O)CCC(NC(=O)OCc1ccccc1)C(=O)O (stereo not drawn) ... 103 % of control
O=C(CCl)N1CC2CCC(CC2)C1 ... 97 % of control
c1ccc2c(c1)C(=NOc1nc3ccccc3c3ccccc13)c1ccccc1-2 ... 93 % of control
CC(=C(C#N)C#N)c1ccc(Cl)cc1 ... 108 % of control
Nc1cc(C(Cl)(Cl)Cl)nc(Cl)n1 ... 105 % of control

For every listed record, write down its T/C.
1. Cc1ccc(C)c(NC(=O)Oc2ccc(C(=O)OCc3ccccc3)cc2)c1
2. CC(=O)Oc1c(C)c(Br)c(OC(C)=O)c(-c2c(C)cc(C)c(Br)c2C)c1Br
3. CC(C)=C1C2CCC1C1C(=O)OC(=O)C21 (stereo not drawn)
4. Cc1cccc(NC(=O)Nc2ccccc2)c1C

Resp:
1. 107 % of control
2. 100 % of control
3. 102 % of control
4. 101 % of control

====

Would you mind telling me the reported T/C of each entry?
- System: L1210 leukemia ip in BDF1 mice, survival T/C
- test details: NCI In Vivo Anticancer Drug Screen. Data for tumor model L1210 Leukemia (intraperitoneal) in B6D2F1 (BDF1) mice
- test settings: endpoint: mean survival time; dose: 100.0 mg/kg/injection; schedule: Q01DX009 (ip); vehicle: saline with Tween-80; higher = longer survival
Inconclusive results and toxic doses are left out.

COc1ccccc1NC(=O)Nc1cccc(C(C)=O)c1 ... 93 % of control
CC(=O)c1cccc(NC(=O)N2CCN(c3ccccc3)CC2)c1 ... 111 % of control
COC(=O)c1ccccc1N=NN(C)CC(C)C ... 121 % of control
Cc1cccc(C(C#N)(CCC#N)N2CCOCC2)n1 (stereo not drawn) ... 98 % of control

Record T/C for all entries; do not skip any.
1. CC(=O)Oc1c(Cl)cc(Cl)cc1Cl
2. CCN(CC)CC(O)CNc1ccnc2cc(Cl)ccc12 (stereo not drawn)

Resp:
107 % of control
97 % of control

Hi team, please reply with T/C for each item in this list.
1. NC(Cc1cccs1)C(=O)O (stereo not drawn)
2. CCCCCCCC(=N)OCC
3. BrC1C2CC(c3ccccc32)C1Br (stereo not drawn)
4. [O-]/[N+](=N\O)c1ccc(/[N+]([O-])=N\O)cc1

Resp:
1. 101 % of control
2. 110 % of control
3. 101 % of control
4. 102 % of control

====

- System: L1210 leukemia ip in BDF1 mice, survival T/C
- test details: NCI In Vivo Anticancer Drug Screen. Data for tumor model L1210 Leukemia (intraperitoneal) in B6D2F1 (BDF1) mice
- test settings: endpoint: mean survival time; dose: 400.0 mg/kg/injection; schedule: Q04DX003 (ip); vehicle: Klucel (hydroxypropylcellulose) (HPC); higher = longer survival
Toxic doses and inconclusive results are not listed.
measured attribute: T/C

CC(=O)Nc1ccc(OC(=O)Nc2ccc(Cl)c([N+](=O)[O-])c2)cc1 ... 92 % of control
COc1ccc(NN=Nc2ccccc2C#N)cc1 ... 108 % of control
C(=C/c1ccc(/C=C/c2ccccc2)cc1)/c1ccccc1 ... 90 % of control
O=C(O)c1nc2ccccc2[nH]c1=O ... 87 % of control

# batch size: 7; output T/C per entry
1. CCCCCCN(S(=O)(=O)c1ccc([N+](=O)[O-])cc1)S(=O)(=O)c1ccc([N+](=O)[O-])cc1
2. CSc1ccc(N=Cc2ccc3c(c2)OCO3)cc1
3. COc1ccc2c(c1)C(=O)C1CC3(CCC21)OCCO3 (centres undefined)
4. CCCCCCCCCCCCSC(=O)Nc1cc([N+](=O)[O-])ccc1C
5. CC(C)c1ccc(C(=S)N2CCOCC2)cc1
6. Cn1c(=O)c2ccccc2n(C)c1=O
7. COc1cc(C)c2c([N+](=O)[O-])cc([N+](=O)[O-])c(OC)c2n1

Resp:
1: 88 % of control; 2: 94 % of control; 3: 100 % of control; 4: 88 % of control; 5: 105 % of control; 6: 100 % of control; 7: 103 % of control

Would you mind listing T/C for each of the following compounds?
1. Nc1ccccc1SC1CC(=O)N(c2cccc(Cl)c2)C1=O (centres undefined)
2. Cc1ncc([N+](=O)[O-])n1C
3. Cc1nc(N)[nH]c(=O)c1N
4. COc1ccccc1-n1c(O)c(N=Nc2ccccc2C)c(=O)n(-c2ccccc2OC)c1=S
5. Cc1ccc(S(=O)(=O)N=Nc2c(O)[nH]c3cc(O)c(C(=O)O)cc23)cc1
6. Cc1ccc(SS(=O)(=O)c2ccc(C)cc2)cc1
7. CN(C)c1ccc(C(=O)C(O)c2ccccc2)cc1 (centres undefined)

Resp:
1. 94 % of control
2. 97 % of control
3. 92 % of control
4. 100 % of control
5. 95 % of control
6. 106 % of control
7. 96 % of control
